# assay_target: F876L mutant Androgen Receptor (AR-F876L) (Homo sapiens (Human), UniProt P10275, F877L)
# Sequence (P10275 whole entry F877L): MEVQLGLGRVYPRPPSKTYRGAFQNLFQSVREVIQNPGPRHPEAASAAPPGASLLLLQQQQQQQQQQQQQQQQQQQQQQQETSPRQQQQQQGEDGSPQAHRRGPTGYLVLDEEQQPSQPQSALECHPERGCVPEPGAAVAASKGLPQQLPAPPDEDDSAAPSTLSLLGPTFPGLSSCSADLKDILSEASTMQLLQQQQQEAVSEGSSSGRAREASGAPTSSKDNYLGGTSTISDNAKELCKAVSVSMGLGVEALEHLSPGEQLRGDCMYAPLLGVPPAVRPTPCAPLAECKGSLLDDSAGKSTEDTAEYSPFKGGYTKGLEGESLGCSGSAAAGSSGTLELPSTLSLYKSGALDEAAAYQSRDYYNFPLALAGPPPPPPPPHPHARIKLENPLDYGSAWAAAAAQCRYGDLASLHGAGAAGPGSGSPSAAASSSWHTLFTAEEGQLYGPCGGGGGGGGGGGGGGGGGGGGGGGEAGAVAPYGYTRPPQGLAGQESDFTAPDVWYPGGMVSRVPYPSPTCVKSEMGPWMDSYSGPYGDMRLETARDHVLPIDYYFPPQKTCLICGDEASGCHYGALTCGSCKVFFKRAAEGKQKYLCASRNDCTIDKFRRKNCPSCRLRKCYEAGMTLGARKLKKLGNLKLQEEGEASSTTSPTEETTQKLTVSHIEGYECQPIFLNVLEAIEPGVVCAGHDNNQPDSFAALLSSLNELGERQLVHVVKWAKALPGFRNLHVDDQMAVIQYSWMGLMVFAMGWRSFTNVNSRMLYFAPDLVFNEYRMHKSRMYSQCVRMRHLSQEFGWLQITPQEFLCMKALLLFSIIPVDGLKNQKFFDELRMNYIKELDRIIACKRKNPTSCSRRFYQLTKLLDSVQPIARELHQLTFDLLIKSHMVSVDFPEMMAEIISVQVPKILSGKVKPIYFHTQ
# method: LNCaP-AR-F876L ANT reporter assay (antagonist mode)
# Type: cell-based
# experimental_setup: antagonist mode; pIC50 = −Log10(IC50 in Molar); read-out: LNCaP-AR-F876L ANT pIC50 (converted)
observable: IC50

Consider the compound COC(=O)CN1CCC(Oc2ccc(N3C(=S)N(c4cnc(C#N)c(C(F)(F)F)c4)C(=O)C34CCC4)cc2)CC1 [Cpd 33] and give its measured IC50.
389 nM

Another compound to look at: CN1CCC(Oc2ccc(N3C(=S)N(c4cnc(C#N)c(C(F)(F)F)c4)C(=O)C34CCC4)cc2)C(F)(F)C1 (racemic) [Cpd 137]
83.2 nM

Another compound to look at: COCCN1CCC(Oc2ccc(N3C(=S)N(c4cnc(C#N)c(C)c4)C(=O)C34CCC4)cc2)CC1 [Cpd 37]
407 nM

Another compound to look at: COc1cc(N2C(=O)C3(CCC3)N(c3ccc4c(cnn4C4CCNCC4)c3)C2=S)cnc1C#N [Cpd 211]
363 nM

----------
# assay_target: wild-type Androgen Receptor (AR-wt) (Homo sapiens (Human))
# Sequence (P10275 whole entry): as the sequence (P10275 whole entry F877L) above, with L877F counted along it
# method: LNCaP-AR-wt ANT reporter assay (antagonist mode)
# Format: cell-based
# experimental_setup: LNCaP-AR-wt ANT pIC50
observable: IC50 (µM)
Give just the numeric value; µM need not be written.

Consider the molecule CN(C)C1(c2ccc(N3C(=S)N(c4cnc(C#N)c(C(F)(F)F)c4)C(=O)C34CCC4)cc2)COC1 and give its measured IC50.
1.07

----------
# assay_target: F876L mutant Androgen Receptor (AR-F876L) (Homo sapiens (Human), UniProt P10275, F877L)
# method: LNCaP-AR-F876L AG reporter assay (agonist mode)
# Assay type: cell-based
# experimental_setup: agonist mode; maximum % stimulation over tested concentration range; read-out: LNCaP-AR-F876L AG MAX % Stim
Threshold-based label: Emax under 0.1% gives TRUE, Emax not under 0.1% gives FALSE.

Would you kindly verify if Emax of CN1CCOC(c2ccc(N3C(=S)N(c4cnc(C#N)c(C(F)(F)F)c4)C(=O)C34CCC4)cc2)C1 (centres unmarked) is strictly less than 0.1%?
FALSE

Another compound to look at: COc1cc(N2C(=O)C3(CCC3)N(c3ccc4nn(C5CCNCC5)cc4c3)C2=S)cnc1C#N
TRUE

Another compound to look at: Cc1cc(N2C(=O)C3(CCC3)N(c3cnc(OC4CCN(C)CC4)nc3)C2=S)cnc1C#N
FALSE

Another compound to look at: COc1cc(N2C(=O)C3(CCC3)N(c3ccc4c(cnn4C4CCN(C(C)=O)CC4)c3)C2=S)cnc1C#N
FALSE

Another compound to look at: N#Cc1ncc(N2C(=O)C3(CCC3)N(c3ccc(SC4CCNCC4)cc3)C2=S)cc1C(F)(F)F
TRUE

Another compound to look at: CN1CC[C@@H](Oc2ccc(N3C(=S)N(c4cnc(C#N)c(C(F)(F)F)c4)C(=O)C34CCC4)cc2)C[C@H]1CO (racemic)
FALSE

Another compound to look at: CN(C(=O)OC(C)(C)C)C1(COc2ccc(N3C(=S)N(c4cnc(C#N)c(C(F)(F)F)c4)C(=O)C34CCC4)cc2)COC1
FALSE

Another compound to look at: N#Cc1ncc(N2C(=O)C3(CCC3)N(c3ccc(C(=O)NC[C@H]4CCCNC4)c(F)c3)C2=S)cc1C(F)(F)F
TRUE

Another compound to look at: CN1CCC(CN(C)C(=O)c2ccc(N3C(=S)N(c4cnc(C#N)c(C(F)(F)F)c4)C(=O)C34CCC4)cc2)CC1
TRUE

Another compound to look at: COc1cc(N2C(=O)C3(CCC3)N(c3ccc(CC4CCNCC4)cc3)C2=S)cnc1C#N
FALSE

Another compound to look at: CN1CCC(n2cc3ccc(N4C(=S)N(c5cnc(C#N)c(C(F)(F)F)c5)C(=O)C45CCC5)cc3n2)CC1
FALSE

Another compound to look at: CN1CCC12CC(Oc1ccc(N3C(=S)N(c4cnc(C#N)c(C(F)(F)F)c4)C(=O)C34CCC4)cn1)C2 (centres unmarked)
FALSE

Another compound to look at: Cc1nc2cc(N3C(=S)N(c4cnc(C#N)c(C(F)(F)F)c4)C(=O)C34CCC4)ccc2[nH]1
FALSE

Another compound to look at: N#Cc1ncc(N2C(=O)C3(CCC3)N(c3ccc4c(ccn4CCO)c3)C2=S)cc1C(F)(F)F
FALSE

Another compound to look at: N#Cc1ncc(N2C(=O)C3(CCC3)N(c3ccc(O[C@@H]4CCN[C@H](CO)C4)cc3)C2=S)cc1C(F)(F)F (racemic)
FALSE

Another compound to look at: N#Cc1ncc(N2C(=O)C3(CCC3)N(c3ccc(CC4CCNCC4)cc3)C2=S)cc1C(F)(F)F
TRUE

----------
Give Emax for every item shown.
# assay_target: F876L mutant Androgen Receptor (AR-F876L) (Homo sapiens (Human), UniProt P10275, F877L)
# method: LNCaP-AR-F876L AG reporter assay (agonist mode)
# Format: cell-based
# experimental_setup: maximum % stimulation (agonist response) over the tested concentration range; read-out: LNCaP-AR-F876L AG MAX % Stim
Give just the numeric value; % need not be written.

Consider the molecule N#Cc1ncc(N2C(=O)C3(CCC3)N(c3ccc(OC4CCN(CCO)CC4)nc3)C2=S)cc1Cl and give its measured Emax.
1.3

Another molecule to look at: N#CCN1CCC(Oc2ccc(N3C(=S)N(c4cnc(C#N)c(Cl)c4)C(=O)C34CCC4)cn2)CC1
0.4

Another molecule to look at: COc1cc(N2C(=O)C3(CCC3)N(c3ccc(OC4CCN(C)CC4)cc3)C2=S)cnc1C#N
0.4

Another molecule to look at: N#Cc1ncc(N2C(=O)C3(CCC3)N(c3ccc4c(cnn4CCO)c3)C2=S)cc1Cl
0.1

Another molecule to look at: N#Cc1ncc(N2C(=O)C3(CCC3)N(c3ccc4c(cnn4C4CCNCC4)c3)C2=S)cc1C(F)(F)F
2.7

Another molecule to look at: N#Cc1ncc(N2C(=O)C3(CCC3)N(c3ccc(OC4C5CCC4CNC5)nc3)C2=S)cc1C(F)(F)F (centres unmarked)
0.1

Another molecule to look at: N#Cc1ncc(N2C(=O)C3(CCC3)N(c3ccc(OCCN4CC5(C4)CC(F)(F)C5)cc3)C2=S)cc1C(F)(F)F
0.2

Another molecule to look at: N#Cc1ncc(N2C(=O)C3(CCC3)N(c3ccc(OC4CCNCC4)nc3)C2=S)cc1Cl
0.1

----------
# assay_target: F876L mutant Androgen Receptor (AR-F876L) (Homo sapiens (Human), UniProt P10275, F877L)
# method: LNCaP-AR-F876L ANT reporter assay (antagonist mode)
# Assay type: cell-based
# experimental_setup: antagonist mode; maximum % inhibition of R1881 control response over tested concentration range; read-out: LNCaP-AR-F876L ANT MAX % Inh
observable: Emax

Consider the compound N#Cc1ncc(N2C(=O)C3(CCC3)N(c3ccc(CN4CCNC(=O)C4)cc3)C2=S)cc1C(F)(F)F and give its measured Emax.
101%

Another compound to look at: Cc1cc(N2C(=O)C3(CCC3)N(c3cnc(OC4CCNCC4)nc3)C2=S)cnc1C#N
99.5%

Another compound to look at: N#Cc1ncc(N2C(=O)C3(CCC3)N(c3ccc(C(=O)NC[C@H]4CCCNC4)c(F)c3)C2=S)cc1C(F)(F)F
99.7%

Another compound to look at: CN1CCC(n2cc3ccc(N4C(=S)N(c5cnc(C#N)c(C(F)(F)F)c5)C(=O)C45CCC5)cc3n2)CC1
102%

Another compound to look at: N#Cc1ncc(N2C(=O)C3(CCC3)N(c3ccc(O[C@@H]4CCN[C@H](CO)C4)cc3)C2=S)cc1C(F)(F)F (racemic)
100%

Another compound to look at: Cn1c(CCO)nc2cc(N3C(=S)N(c4cnc(C#N)c(C(F)(F)F)c4)C(=O)C34CCC4)ccc21
99%

Another compound to look at: CN1CCC[C@H](CNC(=O)c2ccc(N3C(=S)N(c4cnc(C#N)c(C(F)(F)F)c4)C(=O)C34CCC4)cc2F)C1
100%

Another compound to look at: COc1cc(N2C(=O)C3(CCC3)N(c3ccc4c(cnn4C4CCN(C)CC4)c3)C2=S)cnc1C#N
100%

Another compound to look at: C[N@+]1([O-])CC[C@@H](Oc2ccc(N3C(=S)N(c4cnc(C#N)c(C(F)(F)F)c4)C(=O)C34CCC4)cc2)CC1
99.8%

----------
# assay_target: wild-type Androgen Receptor (AR-wt) (Homo sapiens (Human))
# method: LNCaP-AR-wt ANT reporter assay (antagonist mode)
# Format: cell-based
# experimental_setup: maximum % inhibition of R1881 control response over the tested concentration range; read-out: LNCaP-AR-wt ANT MAX % Inh
Give Emax for every item shown.
Give just the numeric value; % need not be written.

Which measured Emax belongs to CC(C)(C)OC(=O)N1CCC(CNC(=O)c2ccc(N3C(=S)N(c4cnc(C#N)c(C(F)(F)F)c4)C(=O)C34CCC4)cc2)CC1 , tested on wild-type Androgen Receptor (AR-wt) (Homo sapiens (Human))?
101

Another compound to look at: CN1CC[C@H](Oc2ccc(N3C(=S)N(c4cnc(C#N)c(C(F)(F)F)c4)C(=O)C34CCC4)cc2)[C@@H](F)C1 (racemic)
101

Another compound to look at: N#Cc1ncc(N2C(=O)C3(CCC3)N(c3ccc(OC4CCN5CCCC5C4)cc3)C2=S)cc1C(F)(F)F (stereo not shown)
100

Another compound to look at: CC(C)(C)OC(=O)N1C2CCC1C(F)C(Oc1ccc(N3C(=S)N(c4cnc(C#N)c(C(F)(F)F)c4)C(=O)C34CCC4)cc1)C2 (stereo not shown)
88.3

Another compound to look at: Cc1cc(N2C(=O)C3(CCC3)N(c3ccc(OC4CCN(CC#N)CC4)nc3)C2=S)cnc1C#N
99.7

Another compound to look at: N#Cc1ncc(N2C(=O)C3(CCC3)N(c3ccc(N4CCN(C(=O)N5CCCC5)CC4)cc3)C2=S)cc1C(F)(F)F
102

Another compound to look at: CN1CCC(Cn2ncc3cc(N4C(=S)N(c5cnc(C#N)c(C(F)(F)F)c5)C(=O)C45CCC5)ccc32)CC1
101
